system: Key Broadleaf Weed and Crop Species; assay: Post-emergent Test II herbicidal activity (Table 5); format: in vivo; settings: post-emergence, 336 h; VIOTR: wild pansy (Viola tricolor); 70 g ai/ha; post-emergent; 14 days after application; read-out: Visual Growth Reduction (%) 14 Days After Application VIOTR
Form field: pest or weed control at 70 g/ha (one value per entry).
QUANTITY NAME: pest or weed control at 70 g/ha

1. Nc1cc(-c2ccc(I)c(F)c2)nc(C(=O)O)c1Cl [Compound 77] : 0 to 29%
2. COC(=O)c1nc(-c2ccc(I)c(F)c2)nc(N)c1OC [Compound 27] : 95 to 100%
3. C=Cc1c(C(=O)OC)nc(-c2ccc(Br)cc2)c(F)c1N [Compound 57] : 0 to 29%
4. C#Cc1ccc(-c2nc(C(=O)OC)c(Cl)c(N)c2Cl)cc1 [Compound 34] : 0 to 29%
5. Cc1c(-c2ccc(C(F)(F)F)c(F)c2)nc(C(=O)O)c(Cl)c1N [Compound 161] : 0 to 29%
6. COC(=O)c1nc(-c2cc(F)c(C(F)(F)F)cc2F)cc(N)c1Cl [Compound 70] : 60 to 74%
7. COC(=O)c1nc(-c2ccc(I)c(F)c2)c(Cl)c(N)c1Cl [Compound 13] : 0 to 29%
8. Nc1cc(-c2c(F)cc(Br)c(F)c2F)nc(C(=O)O)c1Cl [Compound 162] : 95 to 100%
9. COC(=O)c1nc(-c2ccc(I)cc2)c(Cl)c(N)c1Cl [Compound 96] : 0 to 29%
10. Cc1c(-c2ccc(Br)cc2)nc(C(=O)O)c(Cl)c1N [Compound 78] : 0 to 29%
11. Nc1cc(-c2ccc(Br)c(F)c2)nc(C(=O)O)c1Cl [Compound 110] : 45 to 59%
12. COC(=O)c1nc(-c2ccc(Br)cc2)c(Cl)c(N)c1Cl [Compound 47] : 0 to 29%
13. COC(=O)c1nc(-c2ccc(I)c(F)c2)cc(N)c1Cl [Compound 66] : 0 to 29%
14. COC(=O)c1nc(-c2cc(F)c(C#N)cc2F)nc(N)c1OC [Compound 208] : 0 to 29%
15. C=Cc1c(C(=O)O)nc(-c2ccc(I)cc2)c(F)c1N [Compound 17] : 0 to 29%
16. COC(=O)c1nc(-c2cc(F)c(OC(F)F)cc2F)cc(N)c1Cl [Compound 177] : 0 to 29%

---

tested on: Key Grass and Sedge Weeds as well as Grass Crops; assay: Post-emergent Test II herbicidal activity (Table 6); format: in vivo; settings: post-emergence, 336 h, CYPES: yellow nutsedge (Cyperus esculentus), application rate 70 g ai/ha, read-out: Visual Growth Reduction (%) 14 Days After Application, CYPES
Listing: pest or weed control at 70 g/ha of selected compounds
QUANTITY NAME: pest or weed control at 70 g/ha

1) COC(=O)c1nc(-c2ccc(C#N)cc2F)c(F)c(N)c1Cl : 30 to 44%
2) Nc1c(F)c(-c2cc(F)c(I)cc2F)nc(C(=O)O)c1Cl : 45 to 59%
3) C#Cc1ccc(-c2nc(C(=O)OC)c(C=C)c(N)c2F)cc1 : 0 to 29%
4) COC(=O)c1nc(-c2cc(F)c(C(F)(F)F)cc2F)c(F)c(N)c1Cl : 85 to 94%
5) Nc1c(F)c(-c2ccc(OC(F)F)c(F)c2)nc(C(=O)O)c1Cl : 0 to 29%
6) COC(=O)c1nc(-c2cc(F)c(Br)cc2F)c(F)c(N)c1Cl : 95 to 100%
7) C=Cc1c(C(=O)O)nc(-c2ccc(Br)cc2)c(F)c1N : 95 to 100%
8) COC(=O)c1nc(-c2cc(F)c(I)cc2F)nc(N)c1OC : 45 to 59%
9) Nc1c(Cl)c(C(=O)O)nc(-c2ccc(Br)cc2)c1Cl : 95 to 100%
10) COC(=O)c1nc(-c2ccc(Br)cc2)c(Cl)c(N)c1Cl : 85 to 94%
11) C=Cc1c(N)nc(-c2ccc(F)c(F)c2F)nc1C(=O)OC : 60 to 74%
12) Cc1c(-c2ccc(I)c(F)c2)nc(C(=O)O)c(Cl)c1N : 0 to 29%
13) COC(=O)c1nc(-c2cc(F)c(Br)cc2F)cc(N)c1Cl : 95 to 100%
14) Cc1cc(F)c(-c2nc(C(=O)O)c(Cl)c(N)c2F)cc1F : 0 to 29%
15) Nc1cc(-c2cc(F)c(C(F)F)cc2F)nc(C(=O)O)c1Cl : 60 to 74%
